Cited source: the DeepSol protein solubility set

Assay: soluble on expression in E. coli; label from the status in PepcDB or PDB records
property-label: soluble on expression in E. coli

input-sequence	property-label	val
MFTGIVQGTAPIHSIKEKANFRTQVVKLLPEMRKDLEIGASIANNGVCLTVTEINGDLVSFDLMQETLKITNLGTVKVGDYVNIERAMQMGTEIGGHLLSGHIYCTAKISDIIASENNRQIWFELPSADVMKYILTKGFVAVDGISLTIGEVRDTQFCVNLIPETLQRTLMGRRKVGDIVNIEIDPQTQAIVDTVENYLQSKNFLEHHHHHH	soluble on expression in E. coli	soluble
MELRAVQEVLKEERLDGWLLYSFGGSNPLALEVLGLAHLHLTRRFAYLIPREGAPTLLCHAIEASLFPPLPGNRKTYHTWRGFLEGLAHLLGGMRRVALEYVPGGQIPYLSRVDGGTLDLLRGLGLELASSWPLLLLFQTWDEERLQSHRRAAAGLARAKDLALDFLRQNPEASEREVQSVLVRALEGEGLIFDHPPMVAFGKNAANPHHEPSEVRLEEGAVVLLDLWAKAPGGVYADLTWMAGKRPPEAAHRAFQAVARARDEAIAFVERAYREGRYPKGFEVDRLARKVLEEEGYGPYIRHRTGHNLGEEVHGSGPHLDDLETHDLRPLVPGLAFTVEPGVYLEAFGVRTEVDVYLHPTGPEVTTPLQEAITPL	soluble on expression in E. coli	soluble
MGSDKIHHHHHHMQSNRLTESSAEIHDMSLRIYQTPVQHLPEDLYVPPQAFAIWLEQFAGPLDFLLYLVKKNNVDLTRMPILPITEQYLAYISKLDTNHFELAGDYLLMASTLIAIKTELLLPMPEMPTDERDPKAELIERLEEYTQVKAASQRLDNLIRLERDVFLAMVSMPNQDIMNSELPSYSPTLLIDSLFKMQLQPDYQMHSIKVDAVPLADRIASISRQLSTDGARSFHELLDKAQGKIGVVVSFVAVLELIKRQLIGVVANNVDSGVSTATNADGSLSTHSDLLEKLTLEWLA	soluble on expression in E. coli	not soluble
LTQPLDHRHPEKGSFRQRVIVGHVGYDRPTVIVTEGYGAGYALRPTYREELSELFDANMIFVEHRYFLESTPEPCDWQYLTAENSAEDLHAVTTAFKTLYPGKWISTGISKGGQTSLLYRVFFPDDVDVSVPYVAPLCYAREDGRHEPFLRRVGTEADRKKIEDFQLEVLKRKARLLPRFEKMCTEKNYTFRAPLEEIYDFCVLEYSFSIWQWGTDIRSIPETSASDDTLLDHLLAISGPSYFIVDSPTLSFFVQAARELGYYGYDIAPFKPYLSIKTSKDYLRRLMLPEDMRKMKFDKTLSNKIVRFLKKNDPKMIFIYGQNDPWTAAGVTWLKNKKNIHVFVEPGGSHLARIGTMSEDQKQKVMSLLRGWLEE	soluble on expression in E. coli	not soluble
MVQSLNTKVDLVIDATAFTGLTDYGQIMIGDRGFEFYHAKDPRKFIQIPWEEVDYVLASVMFKGKWIPRYAIQTKKNGTYTFASKEPKRVLRAIREYVDPDHMVQSLSFFDVIKRGILSIGKKKK	soluble on expression in E. coli	not soluble
MSLTAPRILMTRPDHYGVTYAINPWMTPESWAGNQTVALAEAATQWQALADALGAVGFALEILPGQPGLPDMVFPANAAIVFDGIALVARFRHPERQGEEAHFHAAFEALRQRGLLSAVHSLPEGVFQEGAGDCLWDASRQLFFAAHGPRSSRASIEVIAETFGQEIVRLELVDPRFYHLDTCFCVLPGGEVLTFTPALSTASLERLRAVVAPEMLIEADFAAASAFSINAVAHGREVVMANPPASLRALLEERGYHVHGLELGRFMQSGGGSYCMTLRLDRRARAEGHHHHHH	soluble on expression in E. coli	soluble
MALLGPKEQEIVRERLANLTRDVEMVLFTDSSTLIAPGKEPCLYCKETKQLLEELSALSDKLHLVVYDLATPEGREKAGAYKVEAAPTLILREKGSEAINLRYRGIPAGYEFASLLEDIEMLGRDGHGLPENVVQELNDLPEEVVLQVFVTPTCPYCPQAVRTAHRLAYASPKVWGEMIEANEFPALSDRYRIHGVPDTIINHGKERVLGAQPLSQFLQAIRKAVGVRA	soluble on expression in E. coli	soluble
MGSDKIHHHHHHMRIALVTNTFLPLTGGGEFVVHHLGNQWSMQGHDVCVFNSLTAEVAHPEALYKVMRYKIMRGATRFGYHRFPWVNVSTRSLNRQINYFNPDFVSGHFSIPVALYLDNLKPKRIWSITSHGSDIVRNDVNSQRDQYDIDNKLANSLNNASSVIAISNSAKANLLDIGVKPSLIRVIPNGVELNRFKTKANTNIREMFNIPEHKKLVLTVGRNSLVKNLGLGINAVAEIAKSRSDIHYLIVGGGTSQLNETIINRGLRDTVTTCENLAGESLVAAYQQSDIFLSTSNYECCPLVILEAMASGLPIVATQVAGNVDLIDNEVNGLLVGRNNHMHIVNAITMLIADKRLCHSISTTNYDKVSDYSWDTVSRSYLELLQ	soluble on expression in E. coli	not soluble
SLSETLYTGISQLATPRPGPQRGAAMGDLHIIEDAALLVRGGVIQWVGPRAAAPTATHVHDLGGRAVVPGLVDPHTHAVWAGDRLSDWEAKLQGATYEEILARGGGIRSTMRATAAADVAELVALARPRLASLRASGATTTEVKSGYGLDFDAELRMLRAVRELQAEFELRPTLLIHVPPQEGRAEYVVGVCAELIPQVAREGLAEALDVFCEKEAFSVEETRTMFAAAQAHGLRVKLHADQFHAIGGTELACEVGALSVDHLEASGAAQIAALAASETVATILPGVTLHLGLPAAPGRQLIDSGAIVAIGTDLNPGSSPLFSTQLALALAVRLCLLTPAEALSACTVNAAYALGLSDRGSLSAGQRADFLVLNGQDWREVAYTLGGNAVAEVYLAGAQL	soluble on expression in E. coli	soluble
FFFSGGVPLDASLFEHKKLDPTQVRQVLQLVLWKLESLRQWEKERITGCIQAVAEHLQLKLRDVMPLMFPAITGHASSVSVLDAMEILGADLSRYRLRQALELLGGASKKETKEWEKIRDAIPG	soluble on expression in E. coli	not soluble
